EXPERIMENTAL TARGET: Trace amine-associated receptor 1 (Homo sapiens, UniProt Q96RJ0);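 note: inhibition of calcium response to PEA at EC80 in Galpha16 coupled cells measured by Fluo-8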
Sequence (Q96RJ0 whole entry): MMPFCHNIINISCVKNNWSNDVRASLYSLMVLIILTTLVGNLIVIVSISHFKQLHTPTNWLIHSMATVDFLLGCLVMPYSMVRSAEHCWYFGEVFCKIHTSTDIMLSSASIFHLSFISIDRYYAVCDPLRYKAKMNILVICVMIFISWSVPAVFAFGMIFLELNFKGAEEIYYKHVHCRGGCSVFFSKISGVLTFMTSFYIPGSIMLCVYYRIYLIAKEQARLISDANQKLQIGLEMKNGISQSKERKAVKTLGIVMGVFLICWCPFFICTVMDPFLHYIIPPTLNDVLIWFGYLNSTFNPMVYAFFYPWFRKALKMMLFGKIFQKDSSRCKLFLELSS
PROTOCOL SUMMARY: Counterscreen for agonists of the human trace amine associated receptor 1 (hTAAR1): Fluorescence-based cell-based high throughput dose response assay to identify hTAAR1 agonist that also desensitize TAAR1 receptor response.
Type: functional
The source made the active and inactive calls.
Select the correct class. Options are t for active, f for inactive and nothing else.

> print(dat)
                                   molecule  group
1  NC(Cc1ccc(F)cc1)c1csc(Nc2ccc(S(N)(=O)=O)cc2)n1 (configuration not stated)      f
2  Cc1cccc(-c2cc3nc(C)cc(N4CC(C)CC(C)C4)n3n2)c1 (configuration not stated)      f
3  Cc1nc(NCCc2ccccc2)c2nnn(Cc3ccccc3Cl)c2n1      t
4  CCCn1c(O)c(C#N)c(C)c(CN2CCCC(C)C2)c1=O (configuration not stated)      f
5        Cc1cccc(NC2=NCC(=O)N2CCc2ccccc2)c1      t

I'd appreciate the recorded outcome for CCOc1cc2c(C#N)c(N3CCNCC3)nc(N)c2c(N)n1 from this test. t

I'd appreciate the recorded outcome for O=C(NCCc1ccccc1)c1ccc(CS(=O)(=O)Cc2ccccc2F)o1 from this test. t

----------
EXPERIMENTAL TARGET: Cytochrome P450 2D6 (Homo sapiens);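 note: CYP2D6 member of a cytochrome P450 panel assay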
Sequence (P10635 whole entry): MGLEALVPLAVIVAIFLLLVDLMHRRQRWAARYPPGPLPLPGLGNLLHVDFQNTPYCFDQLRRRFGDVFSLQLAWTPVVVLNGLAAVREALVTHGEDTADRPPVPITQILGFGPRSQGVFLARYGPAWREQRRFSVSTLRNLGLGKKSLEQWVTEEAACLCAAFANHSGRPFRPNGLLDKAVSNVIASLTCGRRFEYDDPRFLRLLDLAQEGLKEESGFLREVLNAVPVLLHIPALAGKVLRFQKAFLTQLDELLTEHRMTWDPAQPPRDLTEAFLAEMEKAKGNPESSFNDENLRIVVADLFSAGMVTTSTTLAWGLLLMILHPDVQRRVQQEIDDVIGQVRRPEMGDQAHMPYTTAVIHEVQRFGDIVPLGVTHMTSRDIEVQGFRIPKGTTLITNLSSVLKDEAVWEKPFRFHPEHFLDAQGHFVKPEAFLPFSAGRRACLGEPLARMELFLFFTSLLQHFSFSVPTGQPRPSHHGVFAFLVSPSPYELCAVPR
For each entry below, report its AC50 value.

> print(dat)
                                   compound                  result
1                CCCCCC/C(C)=C1/SC(=S)NC1=O  28.2 µM (inconclusive)
2  Brc1cc2c(cc1/C=N/Nc1nc(N3CCCC3)nc(N3CCOCC3)n1)OCO2  28.2 µM (inconclusive)

Hi there! I need AC50 for each item below, if you can.
1. Cc1ccc(Oc2ccccc2/C=C2\SC(=O)N(C)C2=O)cc1
2. COc1cc2c(cc1O)C[C@H]1c3c(cc(O)c(OC)c3-2)CCN1C [BOLDINE]
3. Oc1cccc(-c2nc3c4c(ncn3n2)-c2ccccc2CC42CCCC2)c1
4. COc1ccc(S(=O)(=O)NCCC(=O)NC(C)c2ccccc2)cc1 (centres undefined)
5. O=C(Nc1ccccc1N1CCOCC1)c1ccc([N+](=O)[O-])cc1

["8.91 µM (inconclusive)", "6.31 µM (inconclusive)", "0.631 µM (inconclusive)", "14.1 µM (inconclusive)", "15.8 µM (inconclusive)"]

Hi there! I need AC50 for each item below, if you can.
1. CCC(=C(CC)c1ccc(O)cc1)c1ccc(O)cc1 [DIETHYLSTILBESTROL]
2. CCOc1ccccc1OCCOc1ccc(F)cc1

["15.8 µM (inconclusive)", "22.4 µM (inconclusive)"]
